# System: RAW 264.7 cells
# assay-text: Nitrite quantification (Griess) in LPS stimulated macrophages
# Type: cell-based, mouse
# measurement-context: RAW 264.7 + LPS (200 ng/ml) + 10 μM compound, 24 h; LPS + DMSO control 14.560, basal 0.782
Hi there, I'd appreciate the recorded CONCENTRATION OF NITRITE μM ± SD for every entry that follows.
Express the result in µM but write the number alone.

Input line: Give CONCENTRATION OF NITRITE μM ± SD for "C=CCc1ccc(OC(=O)/C=C/c2ccc(O)c(O)c2)c(OC)c1"
Output line: 3.093

Input line: Give CONCENTRATION OF NITRITE μM ± SD for "COc1cc(C=O)ccc1OC(=O)/C=C/c1ccc(O)cc1"
Output line: 8.227

Input line: Give CONCENTRATION OF NITRITE μM ± SD for C/C=C/c1cc(OC)c2c(c1)[C@@H](C)[C@H](c1ccc(OC(=O)/C=C/c3ccc(O)c(O)c3)c(OC)c1)O2 (racemic)
Output line: 3.449

Input line: Give CONCENTRATION OF NITRITE μM ± SD for "COC(=O)/C=C/c1cc(OC)c2c(c1)[C@@H](C(=O)OC)[C@H](c1ccc(OC(=O)c3ccc(O)c(OC)c3)c(OC)c1)O2"
Output line: 9.582

Input line: Give CONCENTRATION OF NITRITE μM ± SD for "COC(=O)c1ccc(OC(=O)c2cc(O)c(O)c(O)c2)c(OC)c1"
Output line: 6.138

Input line: Give CONCENTRATION OF NITRITE μM ± SD for "COC(=O)/C=C/c1ccc(OC(=O)/C=C/c2ccc(O)cc2)c(OC(=O)/C=C/c2ccc(O)cc2)c1"
Output line: 3.982

Input line: Give CONCENTRATION OF NITRITE μM ± SD for C/C=C/c1cc(OC)c2c(c1)[C@@H](C)[C@H](c1ccc(OC(=O)/C=C/c3ccc(O)cc3)c(OC)c1)O2 (racemic)
Output line: 8.382
